Please respond with reported pEC50 for every item in the list.
# Target or test system: AR / CBP ternary complex (Homo sapiens, UniProt P10275+Q92793)
# Sequence (P10275 whole entry): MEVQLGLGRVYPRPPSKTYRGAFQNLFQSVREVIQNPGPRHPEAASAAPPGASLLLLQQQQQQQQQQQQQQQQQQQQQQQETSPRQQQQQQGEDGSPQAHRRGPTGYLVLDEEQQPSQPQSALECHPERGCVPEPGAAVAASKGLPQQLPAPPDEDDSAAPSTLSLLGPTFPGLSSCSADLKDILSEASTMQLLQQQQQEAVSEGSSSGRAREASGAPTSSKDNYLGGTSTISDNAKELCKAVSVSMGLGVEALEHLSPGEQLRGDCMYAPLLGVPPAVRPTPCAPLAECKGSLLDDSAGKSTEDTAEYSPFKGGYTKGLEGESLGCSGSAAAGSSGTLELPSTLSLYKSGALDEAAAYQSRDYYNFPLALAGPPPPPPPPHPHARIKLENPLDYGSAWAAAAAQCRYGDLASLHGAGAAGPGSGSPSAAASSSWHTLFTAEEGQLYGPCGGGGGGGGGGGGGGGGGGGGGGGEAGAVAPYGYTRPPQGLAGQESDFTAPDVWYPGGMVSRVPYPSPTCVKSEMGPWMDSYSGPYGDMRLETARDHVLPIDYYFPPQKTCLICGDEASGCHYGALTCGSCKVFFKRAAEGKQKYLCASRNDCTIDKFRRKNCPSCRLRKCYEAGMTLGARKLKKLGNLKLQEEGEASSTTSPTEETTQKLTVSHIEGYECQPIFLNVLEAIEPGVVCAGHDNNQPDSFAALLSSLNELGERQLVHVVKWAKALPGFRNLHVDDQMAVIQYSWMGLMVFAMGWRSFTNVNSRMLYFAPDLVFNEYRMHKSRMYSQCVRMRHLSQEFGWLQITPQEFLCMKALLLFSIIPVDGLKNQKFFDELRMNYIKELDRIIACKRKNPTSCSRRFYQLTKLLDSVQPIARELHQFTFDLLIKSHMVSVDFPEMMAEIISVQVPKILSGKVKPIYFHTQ
# Sequence (Q92793 2-2442): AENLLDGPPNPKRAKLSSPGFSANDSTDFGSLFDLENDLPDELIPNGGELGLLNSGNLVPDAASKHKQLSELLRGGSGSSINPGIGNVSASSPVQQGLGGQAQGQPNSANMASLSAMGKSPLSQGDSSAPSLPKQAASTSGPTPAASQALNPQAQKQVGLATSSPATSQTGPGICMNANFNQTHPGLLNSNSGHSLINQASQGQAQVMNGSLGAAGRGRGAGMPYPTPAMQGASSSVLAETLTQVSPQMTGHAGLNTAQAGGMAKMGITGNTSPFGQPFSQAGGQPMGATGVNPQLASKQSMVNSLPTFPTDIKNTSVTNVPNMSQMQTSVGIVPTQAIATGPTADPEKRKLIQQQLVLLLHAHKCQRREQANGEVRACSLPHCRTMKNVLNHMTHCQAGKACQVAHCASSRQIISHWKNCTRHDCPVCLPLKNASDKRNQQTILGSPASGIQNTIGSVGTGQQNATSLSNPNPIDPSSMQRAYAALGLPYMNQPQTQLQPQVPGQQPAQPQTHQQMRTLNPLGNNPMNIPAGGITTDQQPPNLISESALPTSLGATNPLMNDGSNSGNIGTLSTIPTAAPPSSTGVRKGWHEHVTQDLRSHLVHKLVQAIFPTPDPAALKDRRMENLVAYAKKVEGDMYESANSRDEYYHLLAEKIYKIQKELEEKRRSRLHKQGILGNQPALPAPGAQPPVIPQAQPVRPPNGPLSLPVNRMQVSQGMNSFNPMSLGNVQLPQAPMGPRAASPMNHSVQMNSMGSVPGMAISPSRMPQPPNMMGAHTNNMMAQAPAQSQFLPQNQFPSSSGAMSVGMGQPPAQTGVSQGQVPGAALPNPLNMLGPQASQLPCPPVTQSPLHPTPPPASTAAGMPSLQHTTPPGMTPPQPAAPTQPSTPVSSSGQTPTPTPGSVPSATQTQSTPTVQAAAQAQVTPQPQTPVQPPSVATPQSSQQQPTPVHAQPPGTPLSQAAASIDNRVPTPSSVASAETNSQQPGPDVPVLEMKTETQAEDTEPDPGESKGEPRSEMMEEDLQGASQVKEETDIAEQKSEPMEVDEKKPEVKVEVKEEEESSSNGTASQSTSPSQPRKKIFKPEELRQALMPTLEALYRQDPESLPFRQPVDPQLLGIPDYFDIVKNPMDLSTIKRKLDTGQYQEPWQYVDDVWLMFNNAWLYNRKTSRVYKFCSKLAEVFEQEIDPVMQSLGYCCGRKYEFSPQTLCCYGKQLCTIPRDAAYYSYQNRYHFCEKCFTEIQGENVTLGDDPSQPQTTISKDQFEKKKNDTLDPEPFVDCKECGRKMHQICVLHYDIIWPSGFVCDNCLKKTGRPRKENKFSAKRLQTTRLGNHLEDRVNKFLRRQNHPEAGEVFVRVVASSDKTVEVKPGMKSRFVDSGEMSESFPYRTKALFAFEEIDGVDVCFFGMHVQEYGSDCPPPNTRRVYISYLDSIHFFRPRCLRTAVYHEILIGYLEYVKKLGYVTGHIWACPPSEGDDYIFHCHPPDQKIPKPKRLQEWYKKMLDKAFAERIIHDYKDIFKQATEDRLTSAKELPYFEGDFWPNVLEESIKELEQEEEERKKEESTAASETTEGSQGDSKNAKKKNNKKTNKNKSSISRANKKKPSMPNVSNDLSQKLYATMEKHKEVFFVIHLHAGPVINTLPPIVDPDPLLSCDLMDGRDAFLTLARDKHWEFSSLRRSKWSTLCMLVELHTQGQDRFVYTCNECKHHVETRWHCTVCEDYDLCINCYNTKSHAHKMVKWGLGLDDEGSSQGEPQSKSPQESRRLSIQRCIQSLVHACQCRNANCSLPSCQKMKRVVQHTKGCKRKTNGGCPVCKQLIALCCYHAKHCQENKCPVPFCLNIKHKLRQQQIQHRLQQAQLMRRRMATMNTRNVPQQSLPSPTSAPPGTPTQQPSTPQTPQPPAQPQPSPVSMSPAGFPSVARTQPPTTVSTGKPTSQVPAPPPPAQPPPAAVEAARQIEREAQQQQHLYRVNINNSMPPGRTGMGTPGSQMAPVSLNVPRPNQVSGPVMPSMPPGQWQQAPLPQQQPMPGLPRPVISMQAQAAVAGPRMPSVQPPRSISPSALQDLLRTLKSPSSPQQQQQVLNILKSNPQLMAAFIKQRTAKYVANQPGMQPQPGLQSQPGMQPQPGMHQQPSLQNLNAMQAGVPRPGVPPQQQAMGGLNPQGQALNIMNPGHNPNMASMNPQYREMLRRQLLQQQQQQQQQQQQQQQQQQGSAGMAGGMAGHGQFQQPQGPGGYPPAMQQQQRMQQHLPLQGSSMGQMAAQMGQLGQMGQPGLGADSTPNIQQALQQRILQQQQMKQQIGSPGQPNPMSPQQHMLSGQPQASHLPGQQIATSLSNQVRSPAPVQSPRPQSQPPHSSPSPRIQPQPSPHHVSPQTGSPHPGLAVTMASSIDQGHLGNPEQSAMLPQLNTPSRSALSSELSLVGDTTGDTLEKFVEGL
# Test name: Ternary complex formation assay (sandwich ELISA, AR capture, CBP antibody detection) in VCaP cell lysates
# Type: cell-based
# Condition parameters: treated 1.5 hours, rabbit CBP or p300 antibody detection, average, read-out: Average Ternary Complex
pEC50: −log10 of the molar value.

Here are 5 compounds. What values of pEC50 were reported for them?
1. CC(=O)N1CCc2c(c(N3CCCc4cc(-c5nccs5)c(C(F)F)cc43)nn2C2CCN(CC3CCN(c4ccc(C(=O)N[C@H]5CC[C@H](Oc6ccc(C#N)c(Cl)c6)CC5)nn4)CC3)CC2)C1 [Compound 255]
2. CC(=O)N1CCc2c(c(N3CCCc4cc(-c5ccc(CCC6CCN(c7ccc(C(=O)N[C@H]8CC[C@H](Oc9ccc(C#N)c(Cl)c9)CC8)nn7)CC6)cc5)ncc43)nn2C2CCOCC2)C1 [Compound 156]
3. CC(=O)N1CCc2c(c(-c3cccc4cc(-c5cnn(CCC6CC7(C6)CN(c6ccc(C(=O)N[C@H]8CC[C@H](Oc9ccc(C#N)c(Cl)c9)CC8)nn6)C7)c5)ncc34)nn2C2CCOCC2)C1 [Compound 49]
4. COc1cc(O[C@H]2CC[C@H](NC(=O)c3ccc(N4CCC(C(=O)N5CCC(n6nc(N7CCCc8cc(-c9cnn(C)c9)c(C(F)F)cc87)c7c6CCN(C(C)=O)C7)CC5)CC4)cc3)CC2)ccc1C#N [Compound 160]
5. CC(=O)N1CCc2c(c(N3CCCc4cc(C#N)ncc43)nn2C2CCN(CC3CCN(c4ccc(C(=O)N[C@H]5CC[C@H](Oc6ccc(C#N)c(Cl)c6)CC5)nn4)CC3)CC2)C1 [Compound 68]

1: > 9.00; 2: 8.00 to 9.00; 3: > 9.00; 4: > 9.00; 5: > 9.00

Here are 4 compounds. What values of pEC50 were reported for them?
1. CC(=O)N1CCc2c(c(N3CCCc4cc(C)ncc43)nn2C2CCN(CC3CCN(c4ccc(C(=O)N[C@H]5CC[C@H](Oc6ccc(C#N)c(Cl)c6)CC5)nn4)CC3)CC2)C1 [Compound 107]
2. CC(=O)N1CCc2c(c(N3CCCc4cc(-c5cnn(C)c5)c(C(F)F)cc43)nn2C2CCC3(CC2)CCN(c2ccc(C(=O)N[C@H]4CC[C@H](Oc5ccc(C#N)c(Cl)c5)CC4)nn2)CC3)C1 [Compound 112]
3. CC(=O)N1CCc2c(c(-c3cccc4nc(-c5ccc(CCC6CCN(c7ccc(C(=O)N[C@H]8CC[C@H](Oc9ccc(C#N)c(Cl)c9)CC8)nn7)CC6)nc5)ncc34)nn2C2CCOCC2)C1 [Compound 73]
4. CC(=O)N1CCc2c(c(N3CCCc4cc(-c5cnn(C)c5)c(C(F)F)cc43)nn2C2CCN(CCC#Cc3ccc(C(=O)N[C@H]4CC[C@H](Oc5ccc(C#N)c(Cl)c5)CC4)nn3)CC2)C1 [Compound 94]

1: > 9.00; 2: > 9.00; 3: > 9.00; 4: 8.00 to 9.00

Here are 2 compounds. What values of pEC50 were reported for them?
1. CC(=O)N1CCc2c(c(-c3cccc4cc(-c5cnn(CCOC6CCN(c7ccc(C(=O)N[C@H]8CC[C@H](Oc9ccc(C#N)c(Cl)c9)CC8)nn7)CC6)c5)ncc34)nn2C)C1 [Compound 65]
2. CO[C@@H]1CN(c2ccc(C(=O)N[C@H]3CC[C@H](Oc4ccc(C#N)c(Cl)c4)CC3)nn2)CC[C@@H]1CN1CCC(n2nc(N3CCCc4cc(-c5cnn(C)c5)c(C(F)F)cc43)c3c2CCN(C(C)=O)C3)CC1 [Compound 219]

1. > 9.00
2. > 9.00

# query: pEC50 of entry CC(=O)N1CCc2c(c(N3CCCc4cc(-c5cnn(C)c5)c(C(F)F)cc43)nn2[C@H]2CC[C@@]3(CCN(c4ccc(C(=O)N[C@H]5CC[C@H](Oc6ccc(C#N)c(Cl)c6)CC5)nn4)C3)CC2)C1 [Compound 265]
> 9.00

Sourced from patent US20250136578A1
